# experiment-description: Oral bioavailability in rat at 10 mg/kg
# Type: ADME, organism-based
# condition-details: in vivo
assay-readout: bioavailability (%)
The answer is to be given in %; state only the numeric part.

Request: Consider the compound "CC(=O)N[C@@H]1C[C@H](NC(C)(C)C)CC[C@@H]1N1CC[C@H](Nc2ncnc3cc(C(C)(C)C)nn23)C1=O" . State its measured bioavailability.
Response: 94

----------
# experiment-description: Permeability of the compound at pH 5.5 by PAMPA
# Type: ADME
# condition-details: read-out: permeability
assay-readout: Papp (×10⁻⁶ cm/s)
Express your answer in ×10⁻⁶ cm/s, writing the number without its unit.

Request: Supply Papp value. Item: "CC(=O)N[C@@H]1C[C@H](NC(C)(C)C)CC[C@@H]1N1CC[C@H](Nc2ncnc3cc(C(C)(C)C)nn23)C1=O"
Response: 1.9

----------
# experiment-description: Clearance in rat at 2 mg/kg, iv
# Format: ADME, organism-based
# condition-details: in vivo
assay-readout: clearance
Note: a bare number is incomplete; add the unit.

Request: Please look at this compound and report its clearance: CC(=O)N[C@@H]1C[C@H](NC(C)(C)C)CC[C@@H]1N1CC[C@H](Nc2ncnc3cc(C(C)(C)C)nn23)C1=O [BMS-813160]
Response: 3 L/h/kg

----------
# experiment-description: Clearance in dog at 1 mg/kg, iv
# Type: ADME, organism-based, Canis lupus familiaris
# condition-details: in vivo
assay-readout: clearance (mL/min/kg)
Number in mL/min/kg, nothing else.

Request: Provide only the value of recorded clearance for "CC(=O)N[C@@H]1C[C@H](NC(C)(C)C)CC[C@@H]1N1CC[C@H](Nc2ncnc3cc(C(C)(C)C)nn23)C1=O"
Response: 17

----------
# experiment-description: Stability in mouse liver microsomes assessed as half life at 0.5 uM measured up to 45 mins in the presence of NADPH by LC-MS/MS analysis
# Format: ADME, Microsome
assay-readout: half-life at 0.5 µM

Request: Tell me half-life at 0.5 µM reported for "CC(=O)N[C@@H]1C[C@H](NC(C)(C)C)CC[C@@H]1N1CC[C@H](Nc2ncnc3cc(C(C)(C)C)nn23)C1=O"
Response: > 3.33 h

----------
# measured-target: C-C chemokine receptor type 1 (Homo sapiens)
# Sequence (P32246 whole entry): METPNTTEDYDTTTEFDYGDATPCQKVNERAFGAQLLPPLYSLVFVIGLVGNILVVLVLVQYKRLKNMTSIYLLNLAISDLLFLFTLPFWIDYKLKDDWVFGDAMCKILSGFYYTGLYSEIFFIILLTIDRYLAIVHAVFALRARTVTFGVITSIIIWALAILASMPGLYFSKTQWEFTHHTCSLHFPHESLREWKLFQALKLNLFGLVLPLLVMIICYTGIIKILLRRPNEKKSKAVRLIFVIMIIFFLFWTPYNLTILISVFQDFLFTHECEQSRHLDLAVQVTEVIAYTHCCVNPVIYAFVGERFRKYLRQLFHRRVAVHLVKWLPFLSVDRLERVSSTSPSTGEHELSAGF
# experiment-description: Displacement of [125I]MIP-1alpha from CCR1 in human THP-1 cells incubated for 12 hrs by radioligand competition assay
assay-readout: IC50

Request: Look up and state reported IC50 for CC(=O)N[C@@H]1C[C@H](NC(C)(C)C)CC[C@@H]1N1CC[C@H](Nc2ncnc3cc(C(C)(C)C)nn23)C1=O [BMS-813160]
Response: > 25 µM

----------
# measured-target: hERG (KCNH2) (Homo sapiens, UniProt Q12809)
# Sequence (Q12809 whole entry): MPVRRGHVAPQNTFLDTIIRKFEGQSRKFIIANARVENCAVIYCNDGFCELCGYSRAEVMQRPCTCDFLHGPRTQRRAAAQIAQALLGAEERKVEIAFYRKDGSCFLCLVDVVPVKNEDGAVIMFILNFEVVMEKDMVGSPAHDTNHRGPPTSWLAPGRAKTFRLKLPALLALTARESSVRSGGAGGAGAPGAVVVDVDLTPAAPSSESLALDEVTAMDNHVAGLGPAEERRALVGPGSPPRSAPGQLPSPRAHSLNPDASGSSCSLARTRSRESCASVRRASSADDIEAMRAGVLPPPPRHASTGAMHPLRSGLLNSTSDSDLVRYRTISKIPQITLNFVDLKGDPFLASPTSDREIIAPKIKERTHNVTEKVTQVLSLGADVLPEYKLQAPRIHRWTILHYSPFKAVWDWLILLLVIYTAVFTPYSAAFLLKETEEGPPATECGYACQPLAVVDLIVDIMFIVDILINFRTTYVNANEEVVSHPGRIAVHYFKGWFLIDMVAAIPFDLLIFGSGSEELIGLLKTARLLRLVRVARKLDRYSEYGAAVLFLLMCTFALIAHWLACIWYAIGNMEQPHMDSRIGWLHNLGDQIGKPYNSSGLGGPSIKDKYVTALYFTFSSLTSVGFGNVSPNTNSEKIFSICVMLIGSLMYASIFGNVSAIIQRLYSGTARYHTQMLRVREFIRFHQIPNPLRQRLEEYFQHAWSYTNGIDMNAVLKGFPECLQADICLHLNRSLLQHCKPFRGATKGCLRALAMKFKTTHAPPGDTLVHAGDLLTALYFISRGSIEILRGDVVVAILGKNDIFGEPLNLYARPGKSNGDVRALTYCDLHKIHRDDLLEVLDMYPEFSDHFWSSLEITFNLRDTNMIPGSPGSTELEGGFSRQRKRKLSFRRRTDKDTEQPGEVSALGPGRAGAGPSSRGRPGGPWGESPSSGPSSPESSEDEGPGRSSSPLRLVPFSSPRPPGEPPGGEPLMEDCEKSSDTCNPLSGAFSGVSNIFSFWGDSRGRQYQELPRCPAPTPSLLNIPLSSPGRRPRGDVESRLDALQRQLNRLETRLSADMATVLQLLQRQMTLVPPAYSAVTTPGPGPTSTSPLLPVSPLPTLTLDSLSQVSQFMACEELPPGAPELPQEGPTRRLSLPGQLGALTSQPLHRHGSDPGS
# experiment-description: Inhibition of human ERG expressed in HEK293 cells at 30 uM by patch-clamp assay relative to control
# Format: cell-based
# condition-details: HEK293 cells that express hERG
assay-readout: inhibition at 30 µM (%)
Reply numerically in %, unit not repeated.

Request: Quickly give me recorded inhibition at 30 µM for "CC(=O)N[C@@H]1C[C@H](NC(C)(C)C)CC[C@@H]1N1CC[C@H](Nc2ncnc3cc(C(C)(C)C)nn23)C1=O"
Response: 9

----------
# experiment-description: Stability in rat liver microsomes assessed as half life at 0.5 uM measured up to 45 mins in the presence of NADPH by LC-MS/MS analysis
# Format: ADME, Microsome
assay-readout: half-life at 0.5 µM

Request: Return half-life at 0.5 µM for the following molecule: "CC(=O)N[C@@H]1C[C@H](NC(C)(C)C)CC[C@@H]1N1CC[C@H](Nc2ncnc3cc(C(C)(C)C)nn23)C1=O"
Response: > 3.33 h

----------
# experiment-description: AUC (0 to 24 hrs) in mouse at 10 mg/kg, po
# Assay type: ADME, organism-based
# Set-up: time < 24 hr, route oral, dose 10 mg/kg
# condition-details: in vivo
assay-readout: AUC(0-t) at 24 h (µM·h)
State the answer as a number, implicitly in µM·h.

Request: Output AUC(0-t) at 24 h of "CC(=O)N[C@@H]1C[C@H](NC(C)(C)C)CC[C@@H]1N1CC[C@H](Nc2ncnc3cc(C(C)(C)C)nn23)C1=O"
Response: 5.41

Cited source: ChEMBL document CHEMBL4840365
